- Target of assay: T1, human LAIR-1-Fc (human, UniProt Q6GTX8 22-165)
- T1 construct: also called biotinylated human LAIR-1-Fc; not shown: a Fc region
- T1 chain: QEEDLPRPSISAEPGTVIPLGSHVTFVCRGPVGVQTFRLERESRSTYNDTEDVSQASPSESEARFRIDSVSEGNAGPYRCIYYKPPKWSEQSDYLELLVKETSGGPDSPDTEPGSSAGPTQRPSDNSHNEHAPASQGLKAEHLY
- Procedure summary: ELISA blocking: plate coated with 5 µg/mL human collagen type 1, antibody titrated, 1 µg/mL biotinylated human LAIR-1-Fc, streptavidin-HRP, OD650
Readout: IC50 (read off the curve)

Input line: Name the recorded IC50 (read off the curve) of the item anti-LAIR-1 antibody ch57D12 (antibody, V domains shown, The prefix 'ch' is not defined) VH: QVQLQQSGAELARPGASVNLSCRASGYSFTSFGISWVKQRTGQGLEWIGEIYPRSDNTFYNEKFKGKATLTADKSSSTAYMELRSLTSEDSAVYFCARHFGSSSFDYWGQGTTLTVSS VL: ENVLTQSPPIMAASLGQKVTMTCSASSSVSSIYFHWYQQKSGTSPKPLIHRASNLASGVPARFSGSGSGTSYSLTISSVEAEDDATYYCQQWSGYPLTFGGGTKLEIK in your answer.
Output line: ~5 nM
